All figures here come from paper PMC3257521.

- Test system: Pnc1 WT or mutant
- TEST NAME: Steady-state kinetic parameters of Pnc1 mutants, enzyme-coupled assay
- Assay type: biochemical, S. cerevisiae
- DETAILS: substrate nicotinamide, pH 7.5
VALUE KIND: kcat (s⁻¹)
One number for each entry, in s⁻¹.

Illustrative cases are given below, each with its answer.
• K122A (protein, UniProt P53184 1-216, looked up, variant K122A) Nicotinamidase: MKTLIVVDMQNDFISPLGSLTVPKGEELINPISDLMQDADRDWHRIVVTRDWHPSRHISFAKNHKDKEPYSTYTYHSPRPGDDSTQEGILWPVHCVKNTWGSQLVDQIMDQVVTKHIKIVDAGFLTDREYYSAFHDIWNFHKTDMNKYLEKHHTDEVYIVGVALEYCVKATAISAAELGYKTTVLLDYTRPISDDPEVINKVKEELKAHNINVVDK = 0.044
• Pnc1 (Saccharomyces cerevisiae S288C) (protein) MKTLIVVDMQNDFISPLGSLTVPKGEELINPISDLMQDADRDWHRIVVTRDWHPSRHISFAKNHKDKEPYSTYTYHSPRPGDDSTQEGILWPVHCVKNTWGSQLVDQIMDQVVTKHIKIVDKGFLTDREYYSAFHDIWNFHKTDMNKYLEKHHTDEVYIVGVALEYCVKATAISAAELGYKTTVLLDYTRPISDDPEVINKVKEELKAHNINVVDK = 0.69

Here is another molecule to look at.
Form field kcat, entry D8A (protein, UniProt P53184 1-216, looked up, variant D8A) Nicotinamidase: MKTLIVVAMQNDFISPLGSLTVPKGEELINPISDLMQDADRDWHRIVVTRDWHPSRHISFAKNHKDKEPYSTYTYHSPRPGDDSTQEGILWPVHCVKNTWGSQLVDQIMDQVVTKHIKIVDKGFLTDREYYSAFHDIWNFHKTDMNKYLEKHHTDEVYIVGVALEYCVKATAISAAELGYKTTVLLDYTRPISDDPEVINKVKEELKAHNINVVDK : 0.0009
